- SUBJECT_OF_TEST: Cytochrome P450 1A2 (Homo sapiens)
- Sequence (P05177 whole entry): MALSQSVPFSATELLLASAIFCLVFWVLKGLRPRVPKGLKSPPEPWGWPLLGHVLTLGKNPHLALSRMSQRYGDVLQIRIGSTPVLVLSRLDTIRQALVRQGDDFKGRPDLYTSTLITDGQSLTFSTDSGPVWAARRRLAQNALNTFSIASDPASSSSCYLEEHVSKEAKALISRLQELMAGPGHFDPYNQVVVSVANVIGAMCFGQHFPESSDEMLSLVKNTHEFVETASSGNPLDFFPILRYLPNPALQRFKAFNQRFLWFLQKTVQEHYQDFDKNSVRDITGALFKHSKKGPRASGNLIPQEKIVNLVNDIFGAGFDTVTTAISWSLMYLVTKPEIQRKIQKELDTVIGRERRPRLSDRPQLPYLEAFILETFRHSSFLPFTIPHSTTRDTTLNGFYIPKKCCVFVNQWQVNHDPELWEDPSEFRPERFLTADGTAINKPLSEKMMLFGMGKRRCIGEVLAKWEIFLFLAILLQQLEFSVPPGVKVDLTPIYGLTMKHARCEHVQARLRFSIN
pIC50: −log10 of the molar value.
TEST_READOUT: pIC50

## Task Give me measured pIC50, please, for this compound: O=C1CC(=O)N(CCc2ccccc2)C(=O)N1CCc1ccccc1
## Result < 4.30
